Cited source: ChEMBL document CHEMBL1136445

Organism: Bos taurus
measurementNotes: Inhibitory potency against NADH/DH oxidoreductase with respect to rotenone
quantity: Relative potency
Just the number.

CCCCCCCCCCCC[C@H](O)[C@@H]1CC[C@@H]([C@@H](O)CCCC/C(CCCCC[C@@H](O)CC2=C[C@H](C)OC2=O)=N\O)O1	0.52
CCCCCCCCCCCC[C@H](O)[C@@H]1CC[C@@H]([C@@H](O)CCCC[C@@H](O)CCCCC[C@@H](O)CC2=C[C@H](C)OC2=O)O1	0.62
CCCCCCCCCCCC[C@H](O)[C@@H]1CC[C@@H]([C@@H](O)CCCC[C@@H](O)CCCCC[C@@H]2CC(CC(C)=O)C(=O)O2)O1 (stereo not given in full)	0.64
CCCCCCCCCCCC[C@H](O)[C@@H]1CC[C@@H]([C@@H](O)CCCC[C@@H](O)CCCCC[C@@H](O)CC2(O)C(=O)O[C@@H](C)C2O)O1 (stereo not given in full)	4.27

QUERY: Please look at this compound and report its Relative potency: CCCCCCCCCCCC[C@H](O)[C@@H]1CC[C@@H]([C@@H](O)CCCCC(=O)CCCCC[C@@H]2CC(CC(C)=O)C(=O)O2)O1 (stereo not given in full)
RESULT: 0.13

QUERY: Read the entry CCCCCCCCCCCC[C@H](O)[C@@H]1CC[C@@H]([C@@H](O)CCCC[C@@H](O)CCCCC[C@@H]2CC(CC(C)O)C(=O)O2)O1 (stereo not given in full) and write its reported Relative potency.
RESULT: 1.1

QUERY: Please report the measured Relative potency for CCCCCCCCCCCC[C@H](O)[C@@H]1CC[C@@H]([C@@H](O)CCCC[C@@H](O)CCCCC[C@@H](O)CC2C[C@H](C)OC2=O)O1 (stereo not given in full)
RESULT: 0.7

QUERY: Name the recorded Relative potency of the item C=C(C)[C@H]1Cc2c(ccc3c2O[C@@H]2COc4cc(OC)c(OC)cc4[C@@H]2C3=O)O1 [ROTENONE] in your answer.
RESULT: 1

QUERY: Dear colleague, please send me the reported Relative potency for CCCCCCCCCCCC[C@H](O)[C@@H]1CC[C@@H]([C@@H](O)CCCCC(=O)CCCCC[C@@H](O)CC2=C[C@H](C)OC2=O)O1 when you can.
RESULT: 0.15

QUERY: Quick one: give measured Relative potency for CCCCCCCCCCCC[C@H](O)[C@@H]1CC[C@@H]([C@@H](O)CCCC[C@@H](O)CCCCC[C@@H]2CC(C/C(C)=N/O)C(=O)O2)O1 (stereo not given in full)
RESULT: 0.37
